Assayed System: T1, cynomolgus monkey serum albumin (cynomolgus monkey, UniProt A2V9Z4 25-608)
T1 construct: bought protein, amine-coupled to a CM5 chip; also called Cyno SA
Procedure Text: SPR (Biacore 8K), albumin immobilised, 25 C, 1:1 kinetics
# met = koff below 0.0008 s⁻¹ (exclusive); not met = koff at/above 0.0008 s⁻¹

[
  {
    "Binder": "INS Analog 23 (other, single-chain insulin B-L2-A-L1-VHH fusion; also called Ex. 23) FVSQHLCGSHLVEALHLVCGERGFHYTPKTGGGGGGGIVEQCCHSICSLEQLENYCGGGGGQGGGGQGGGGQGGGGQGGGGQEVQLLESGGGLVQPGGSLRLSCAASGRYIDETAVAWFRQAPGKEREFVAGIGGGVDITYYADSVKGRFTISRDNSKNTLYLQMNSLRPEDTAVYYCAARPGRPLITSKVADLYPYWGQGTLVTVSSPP",
    "Class Label": "not met"
  },
  {
    "Binder": "INS Analog 28 (other, single-chain insulin B-L2-A-L1-VHH fusion; also called Ex. 28) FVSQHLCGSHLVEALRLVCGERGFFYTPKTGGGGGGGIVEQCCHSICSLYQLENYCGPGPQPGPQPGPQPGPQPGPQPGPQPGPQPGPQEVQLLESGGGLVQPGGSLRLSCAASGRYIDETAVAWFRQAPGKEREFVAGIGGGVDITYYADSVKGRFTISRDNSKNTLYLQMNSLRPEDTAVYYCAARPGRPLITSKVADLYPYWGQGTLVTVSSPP",
    "Class Label": "met"
  },
  {
    "Binder": "INS Analog 24 (other, single-chain insulin B-L2-A-L1-VHH fusion; also called Ex. 24) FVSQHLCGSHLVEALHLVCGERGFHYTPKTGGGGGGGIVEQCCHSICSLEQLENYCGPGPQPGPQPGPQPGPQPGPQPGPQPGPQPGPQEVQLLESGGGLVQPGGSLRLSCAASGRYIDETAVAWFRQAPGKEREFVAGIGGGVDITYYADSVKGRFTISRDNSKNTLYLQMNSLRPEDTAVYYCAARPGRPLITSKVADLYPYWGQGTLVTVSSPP",
    "Class Label": "met"
  },
  {
    "Binder": "INS Analog 26 (other, single-chain insulin B-L2-A-L1-VHH fusion; also called Ex. 26) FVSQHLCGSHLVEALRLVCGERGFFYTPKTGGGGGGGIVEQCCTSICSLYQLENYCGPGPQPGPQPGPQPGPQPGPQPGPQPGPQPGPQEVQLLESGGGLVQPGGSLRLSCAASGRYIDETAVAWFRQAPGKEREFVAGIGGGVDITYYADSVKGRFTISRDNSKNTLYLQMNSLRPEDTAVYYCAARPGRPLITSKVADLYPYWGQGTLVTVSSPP",
    "Class Label": "met"
  }
]

Each recorded value in this set is attributed to patent US20220378931A1.
